The measurements presented in this section are drawn from the supplement of paper PMC10567573.

assay_summary: protein stability index of a GFP-peptide fusion (GPS, HEK-293T) (PSI 1-6); higher = more stable;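 note: 24-mer peptide tiles fused after GFP, lentivirally expressed, FACS-sorted into six equal bins by GFP/DsRed ratio, decoded by Illumina sequencing, PSI is the read-weighted mean bin number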
conditions_used: treatment: MLN4924 1 uM, 8 h; c terminus: a fixed tail appended
Response key: label 1 means protein stability index >= 4; label 0 means protein stability index < 4.

[[record]]
sequence_code = "LKVVHELPACTLCAGPLEDAVTIP [TRIM15]"
classification = "label 0"

[[record]]
sequence_code = "LKNIRHRPGGGRVKIESVKLDFKE [MAP2]"
classification = "label 0"

[[record]]
sequence_code = "GGTTGYIYSTDLHKLDLNTREWTQ [KLHDC10]"
classification = "label 0"

[[record]]
sequence_code = "STCFERPCFKWYTSPWSECTKTCG [ADAMTSL2]"
classification = "label 0"


# input for lookup
Answer whether protein stability index of ERAVKRMRHLSTGTMTGLAIQYAL [MATN2] is greater than or equal to 4.
label 0
